# Target of assay: rat GABAA α2β2γ2 Receptors (Rattus norvegicus, UniProt P23576)
# Construct: expressed in transfected cells; pIRES Neo2 / Hygro2 / Puro2 vectors
# Sequence (P23576 29-451): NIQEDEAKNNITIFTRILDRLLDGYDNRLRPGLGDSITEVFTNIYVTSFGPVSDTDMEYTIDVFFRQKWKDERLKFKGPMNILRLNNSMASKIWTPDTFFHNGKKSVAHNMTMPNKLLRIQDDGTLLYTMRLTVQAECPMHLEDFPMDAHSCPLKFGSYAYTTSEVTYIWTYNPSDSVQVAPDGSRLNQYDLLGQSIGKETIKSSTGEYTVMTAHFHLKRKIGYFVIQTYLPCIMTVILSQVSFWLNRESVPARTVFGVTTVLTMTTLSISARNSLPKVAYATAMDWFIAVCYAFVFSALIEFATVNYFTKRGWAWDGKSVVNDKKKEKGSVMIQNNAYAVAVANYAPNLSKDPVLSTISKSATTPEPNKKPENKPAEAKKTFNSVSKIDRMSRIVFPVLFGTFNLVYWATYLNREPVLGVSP
# Sequence (P63138 25-474 partner limits assumed): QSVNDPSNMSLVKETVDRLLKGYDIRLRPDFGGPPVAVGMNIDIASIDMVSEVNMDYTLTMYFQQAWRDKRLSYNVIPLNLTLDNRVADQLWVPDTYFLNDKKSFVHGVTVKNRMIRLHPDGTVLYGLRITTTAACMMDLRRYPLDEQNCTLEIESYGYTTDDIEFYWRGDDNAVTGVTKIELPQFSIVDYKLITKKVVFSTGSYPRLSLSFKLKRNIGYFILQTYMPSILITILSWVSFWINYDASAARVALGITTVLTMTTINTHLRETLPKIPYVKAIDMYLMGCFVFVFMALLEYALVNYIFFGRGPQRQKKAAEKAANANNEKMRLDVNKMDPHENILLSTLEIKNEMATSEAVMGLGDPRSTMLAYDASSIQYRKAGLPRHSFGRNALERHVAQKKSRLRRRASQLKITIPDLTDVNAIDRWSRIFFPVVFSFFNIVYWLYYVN
# Sequence (P18508 39-466 partner): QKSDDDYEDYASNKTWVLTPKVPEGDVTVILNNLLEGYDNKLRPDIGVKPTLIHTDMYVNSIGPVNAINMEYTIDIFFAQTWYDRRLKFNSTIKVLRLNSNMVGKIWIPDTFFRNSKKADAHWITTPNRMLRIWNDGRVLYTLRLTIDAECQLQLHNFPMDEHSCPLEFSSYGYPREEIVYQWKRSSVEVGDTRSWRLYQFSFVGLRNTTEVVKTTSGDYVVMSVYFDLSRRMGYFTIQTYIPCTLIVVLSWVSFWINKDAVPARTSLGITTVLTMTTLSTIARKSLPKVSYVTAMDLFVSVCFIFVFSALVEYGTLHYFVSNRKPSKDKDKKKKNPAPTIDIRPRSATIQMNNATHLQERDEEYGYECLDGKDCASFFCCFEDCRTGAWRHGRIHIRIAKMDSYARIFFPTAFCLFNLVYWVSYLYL
# Assay comment: PatchXpress 7000A automated parallel patch-clamp: potentiation of GABA EC20 current in HEK293 cells
# Assay type: cell-based
# Experimental conditions: percent increase in mean GABA EC20 current response; HEK293 cells stably expressing rat GABAA α2β2γ2; voltage-clamped at −60 mV; read-out: GABAA α2 EP EMAX (%)
Where a name gives a salt, the structure may show the parent alone.
Assay readout: Emax

Enquiry: State its Emax: C#Cc1ccc2c(c1)C(c1ccccc1)=NCc1c(C(=O)N(CCOC)CCOC)ncn1-2 [Example 16]
Return: 200 to 300%

Enquiry: State its Emax: C#Cc1ccc2c(c1)C(c1ccccc1)=NCc1c(C(=O)NCCCO)ncn1-2 [Example 29, dihydrochloride]
Return: 300 to 400%

Enquiry: State its Emax: C#Cc1ccc2c(c1)C(c1ccccc1)=NCc1c(C(=O)NCC(=O)OCC)ncn1-2 [Example 7]
Return: 300 to 400%

Enquiry: State its Emax: C#Cc1ccc2c(c1)C(c1ccccc1)=NCc1c(C(=O)NCCOC(C)C)ncn1-2 [Example 20]
Return: 400 to 500%

Enquiry: State its Emax: C#Cc1ccc2c(c1)C(c1ccccc1)=NCc1c(C(=O)N3CCN(C)CC3)ncn1-2 [Example 8]
Return: 300 to 400%

Enquiry: State its Emax: C#Cc1ccc2c(c1)C(c1ccccc1)=NCc1c(C(=O)NCCOCC)ncn1-2 [Example 12, dihydrochloride]
Return: 300 to 400%

Enquiry: State its Emax: C#Cc1ccc2c(c1)C(c1ccccc1)=NCc1c(C(=O)NCC(=O)O)ncn1-2 [Example 33]
Return: 400 to 500%

Enquiry: State its Emax: C#Cc1ccc2c(c1)C(c1ccccc1)=NCc1c(C(=O)NCC(O)CC)ncn1-2 (centres unmarked) [Example 26]
Return: 200 to 300%
